- TEST METHOD NOTES: gradient 5% acetonitrile 3 min, to 50% in 2 min, to 85% in 15 min, held 3 min, 100 µL/min
- MEASUREMENT CONDITIONS: column: Zorbax Extend-C18 2.1 x 50 mm; eluents: water / acetonitrile, 0.1% formic acid
We label by threshold. Values of RP-LC retention time strictly beneath 800 s are MET. Values of 800 s and up are NOT MET.

1. CCOC(=O)N1CCN(S(=O)(=O)CCNC(=O)c2ccccc2)CC1	MET
2. COc1ccc(Cl)cc1C(=O)NCCOc1ccc(F)cc1	NOT MET
3. CCSc1nc2ccc(NS(=O)(=O)c3cc(F)ccc3F)cc2s1	NOT MET
4. COc1ccc(-c2noc(-c3nn(-c4ccc(C)cc4)ccc3=O)n2)cc1OC	NOT MET
5. CNC(=O)[C@@H]1CN(C(=O)c2cscn2)C[C@H]1c1nc(C)no1	MET
6. COc1ccc(NC(=O)c2nnc(CCCC(=O)NCCc3c[nH]c4ccc(Cl)cc34)s2)cc1	NOT MET
7. Cc1ccc(-n2cc3c(N4CCCC(C(=O)NCc5cc(F)cc(F)c5)C4)ncnc3n2)cc1 (centres undefined)	MET
8. O=C(NCCOc1cccc(C(F)(F)F)c1)c1ccccc1Cl	NOT MET
9. COc1ccc(NC(=O)N2[C@H]3CC[C@@H]2c2cncnc2C3)cc1OC	NOT MET
